TARGET_ENTITY: CDK4/cyclin D1 (Homo sapiens)
Construct: GST
Sequence (P11802 whole entry): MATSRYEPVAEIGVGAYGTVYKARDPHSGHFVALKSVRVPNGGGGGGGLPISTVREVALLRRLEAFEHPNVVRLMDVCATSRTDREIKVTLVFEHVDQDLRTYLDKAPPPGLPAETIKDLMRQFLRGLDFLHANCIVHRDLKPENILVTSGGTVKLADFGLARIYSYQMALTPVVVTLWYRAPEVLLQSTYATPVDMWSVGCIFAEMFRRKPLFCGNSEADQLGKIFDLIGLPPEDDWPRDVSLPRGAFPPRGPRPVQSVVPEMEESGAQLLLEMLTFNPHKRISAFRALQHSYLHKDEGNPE
Sequence (P24385 whole entry partner): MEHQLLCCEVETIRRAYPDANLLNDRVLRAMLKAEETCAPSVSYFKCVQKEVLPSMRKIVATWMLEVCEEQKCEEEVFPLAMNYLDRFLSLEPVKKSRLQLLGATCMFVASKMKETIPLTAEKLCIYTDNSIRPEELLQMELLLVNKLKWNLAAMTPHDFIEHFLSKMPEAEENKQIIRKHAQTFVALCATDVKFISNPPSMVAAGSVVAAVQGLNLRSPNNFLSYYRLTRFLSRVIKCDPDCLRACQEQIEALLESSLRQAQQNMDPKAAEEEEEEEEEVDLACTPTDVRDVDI
ASSAY_PROTOCOL: Inhibitory activity against CDK4 (CDK4/cyclin D1 kinase assay, GST-Rb substrate, 32P-ATP)
EXPERIMENTAL_SETUP: 100 μM ATP, 30° C., 30 minutes
Class membership depends on IC50 alone; the intervals are bin 0 (below 0.5 µM), bin 1 (0.5 µM to below 2 µM), bin 2 (2 µM or more)

Some solved entries appear below for comparison.
COMPOUND	ASSIGNED_CLASS
CC(=O)Nc1cc(N2CCCS2(=O)=O)c2oc(-c3ccc(O)c(Cl)c3)c(O)c(=O)c2c1 [Compound 34]	bin 1
Cc1cc(-c2cc[n+](C)cc2)c2oc(-c3ccc(O)c(Cl)c3)c(O)c(=O)c2c1 [Compound 40]	bin 0

[ask] Quick check: band for Cc1cc(N)c2oc(-c3ccc(O)c(N)c3)c(O)c(=O)c2c1 [Compound 1]
[reply] bin 2

[ask] Quick check: band for Cc1cc(N2CCCS2(=O)=O)c2oc(-c3ccc(O)cc3)c(O)c(=O)c2c1 [Compound 15]
[reply] bin 1

[ask] Quick check: band for CNc1cc(N2CCCS2(=O)=O)c2oc(-c3ccc(O)c(Cl)c3)c(O)c(=O)c2c1 [Compound 37]
[reply] bin 0

Reference for the values: patent US6683095B2
